# target: T1, human programmed cell death protein 1 (hPD-1) C93S (aa 24-167) (Homo sapiens, UniProt Q15116, C93S)
# T1 construct: made as a fusion with a TEV site and human Fc; the Fc was cut off with TEV protease; source: Expi293F, purified (Protein A, TEV cleavage of Fc, SEC; monomer fractions); not shown: Fc (human), C-terminal, cleaved
# T1 sequence (Q15116 24-167 C93S): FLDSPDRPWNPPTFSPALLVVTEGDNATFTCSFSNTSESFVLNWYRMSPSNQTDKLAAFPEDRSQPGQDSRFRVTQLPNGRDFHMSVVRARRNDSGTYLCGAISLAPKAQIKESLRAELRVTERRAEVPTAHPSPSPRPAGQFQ
# assay-notes: SPR; Carterra LSA; Fab from the ammonium sulfate precipitate of the culture supernatant immobilised on a NiHC200M chip; hPD-1 (1-1024 nM) or mPD-1-Fc (4-1024 nM) as analyte, fourfold dilution series, no regeneration; HBS-EP pH 7.4, 25 °C; medians over the spots of a construct, KD = koff/kon
# study-conditions: one partner purified
Overview of reported kon across a group of binders:

Here's what some known entries look like.
1) toripalimab Fab L.S28A (Fab, V domains shown, as the heavy chain of Sm3; light chain of Sm3 with this change; numbers count from the chain's first residue; source: Brevibacillus, culture supernatant (ammonium sulfate precipitate); not shown: 6xHis, C-terminal, kept; 6xHN, C-terminal, kept) VH: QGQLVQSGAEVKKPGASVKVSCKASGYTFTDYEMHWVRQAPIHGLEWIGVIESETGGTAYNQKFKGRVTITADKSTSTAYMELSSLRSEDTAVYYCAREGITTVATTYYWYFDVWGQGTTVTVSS VL: DVVMTQSPLSLPVTLGQPASISCRSSQAIVHSNGNTYLEWYLQKPGQSPQLLIYKVSNRFSGVPDRFSGSGSGTDFTLKISRVEAEDVGVYYCFQGSHVPLTFGQGTKLEIK ... 15800 M⁻¹ s⁻¹
2) toripalimab Fab H.T58Y (Fab, V domains shown, heavy chain of Sm3 with this change; numbers count from the chain's first residue; as the light chain of Sm3; source: Brevibacillus, culture supernatant (ammonium sulfate precipitate); not shown: 6xHis, C-terminal, kept; 6xHN, C-terminal, kept) VH: QGQLVQSGAEVKKPGASVKVSCKASGYTFTDYEMHWVRQAPIHGLEWIGVIESETGGYAYNQKFKGRVTITADKSTSTAYMELSSLRSEDTAVYYCAREGITTVATTYYWYFDVWGQGTTVTVSS VL: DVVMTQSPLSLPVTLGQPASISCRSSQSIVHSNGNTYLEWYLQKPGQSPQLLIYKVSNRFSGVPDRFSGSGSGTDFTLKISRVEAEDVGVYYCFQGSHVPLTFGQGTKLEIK ... 12300 M⁻¹ s⁻¹

Entry toripalimab Fab L.H31Y (Fab, V domains shown, as the heavy chain of Sm3; light chain of Sm3 with this change; numbers count from the chain's first residue; source: Brevibacillus, culture supernatant (ammonium sulfate precipitate); not shown: 6xHis, C-terminal, kept; 6xHN, C-terminal, kept) VH: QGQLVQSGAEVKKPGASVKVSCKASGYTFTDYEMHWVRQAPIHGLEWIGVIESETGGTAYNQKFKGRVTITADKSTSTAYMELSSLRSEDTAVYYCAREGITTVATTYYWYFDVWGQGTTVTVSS VL: DVVMTQSPLSLPVTLGQPASISCRSSQSIVYSNGNTYLEWYLQKPGQSPQLLIYKVSNRFSGVPDRFSGSGSGTDFTLKISRVEAEDVGVYYCFQGSHVPLTFGQGTKLEIK , kon reported as 38600 M⁻¹ s⁻¹
